TARGET_UNDER_TEST: UniProt Q9UBT2
Sequence (Q9UBT2 1-640): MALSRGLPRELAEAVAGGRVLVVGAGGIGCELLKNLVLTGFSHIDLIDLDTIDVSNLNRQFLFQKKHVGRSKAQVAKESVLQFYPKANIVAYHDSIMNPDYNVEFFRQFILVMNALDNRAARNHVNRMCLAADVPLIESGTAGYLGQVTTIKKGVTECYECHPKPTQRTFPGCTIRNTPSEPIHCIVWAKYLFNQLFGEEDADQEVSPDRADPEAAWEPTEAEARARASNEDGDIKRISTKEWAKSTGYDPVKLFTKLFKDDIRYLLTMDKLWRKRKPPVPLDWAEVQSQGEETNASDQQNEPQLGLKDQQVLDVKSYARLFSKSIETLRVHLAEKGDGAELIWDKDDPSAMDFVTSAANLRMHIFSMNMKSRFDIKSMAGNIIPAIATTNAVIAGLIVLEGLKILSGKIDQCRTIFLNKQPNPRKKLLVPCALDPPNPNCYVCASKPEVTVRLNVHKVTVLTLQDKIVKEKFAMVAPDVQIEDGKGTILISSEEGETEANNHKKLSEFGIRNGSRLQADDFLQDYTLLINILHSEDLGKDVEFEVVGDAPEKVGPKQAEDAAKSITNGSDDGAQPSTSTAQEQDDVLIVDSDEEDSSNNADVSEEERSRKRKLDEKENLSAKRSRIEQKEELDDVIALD
Sequence (Q9UBE0 1-346 partner): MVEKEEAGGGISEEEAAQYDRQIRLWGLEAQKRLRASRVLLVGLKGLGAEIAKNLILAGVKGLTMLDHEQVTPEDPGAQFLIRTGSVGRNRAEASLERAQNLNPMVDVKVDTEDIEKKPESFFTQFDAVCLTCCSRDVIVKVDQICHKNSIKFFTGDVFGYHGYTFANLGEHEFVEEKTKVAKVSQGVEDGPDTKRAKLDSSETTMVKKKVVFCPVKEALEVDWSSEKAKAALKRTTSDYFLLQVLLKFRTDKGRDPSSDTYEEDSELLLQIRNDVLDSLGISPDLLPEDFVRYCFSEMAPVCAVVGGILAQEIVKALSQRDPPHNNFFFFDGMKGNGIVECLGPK
PROTOCOL_NOTES: SUMO activity (Table I, biological activities)
Format: biochemical
Parameters: key: + (less active); ++ (active); +++ (most active)
EXPERIMENTAL_READOUT: SUMO

CCOC(=O)C1=C(C(=O)Nc2c(CC)cccc2CC)C2C=CC1(C(Nc1ccccc1)c1ccc(CN3CCOCC3)cc1)O2 (centres unmarked) :: ++
CNCCNC(=O)C1=C(C(=O)OC)C2(C(Cc3ccccc3)Nc3ccccc3)C=CC1O2 (centres unmarked) :: +
COC(=O)C1=C(C(=O)NCCN2CCCC2)C2C=CC1(C(Cc1ccc(C)cc1)Nc1cc(F)cc(F)c1)O2 (centres unmarked) :: +++
CCOC(=O)C1=C(C(=O)N(C)C)C2C=CC1(C(Cc1ccccc1)Nc1ccccc1)O2 (centres unmarked) :: +
COC(=O)C1=C(C(=O)OC)C2(C(Cc3ccccc3Cl)N[S@+]([O-])C(C)(C)C)CCC1O2 (some centres unmarked) :: ++
CCOC(=O)C1=C(C(=O)Nc2ccccc2C)C2C=CC1(C(Nc1ccccc1)c1ccc(CN3CCOCC3)cc1)O2 (centres unmarked) :: ++

Look at this molecule and give its reported SUMO. COC(=O)C1=C(C(=O)NCCN2CCOCC2)C2C=CC1(C(Cc1ccccc1)Nc1cc(F)cc(Cl)c1)O2 (centres unmarked)
+++

For COC(=O)C1=C(C(=O)Nc2ccc(OC)cc2OC)C2C=CC1(C(Cc1ccccc1)Nc1ccccc1)O2 (centres unmarked) then?
+

Sourced from patent US11578079B2
